- Measured On: rat RXFP2 (Rattus norvegicus, UniProt F7EMH8)
- Sequence (F7EMH8 20-737): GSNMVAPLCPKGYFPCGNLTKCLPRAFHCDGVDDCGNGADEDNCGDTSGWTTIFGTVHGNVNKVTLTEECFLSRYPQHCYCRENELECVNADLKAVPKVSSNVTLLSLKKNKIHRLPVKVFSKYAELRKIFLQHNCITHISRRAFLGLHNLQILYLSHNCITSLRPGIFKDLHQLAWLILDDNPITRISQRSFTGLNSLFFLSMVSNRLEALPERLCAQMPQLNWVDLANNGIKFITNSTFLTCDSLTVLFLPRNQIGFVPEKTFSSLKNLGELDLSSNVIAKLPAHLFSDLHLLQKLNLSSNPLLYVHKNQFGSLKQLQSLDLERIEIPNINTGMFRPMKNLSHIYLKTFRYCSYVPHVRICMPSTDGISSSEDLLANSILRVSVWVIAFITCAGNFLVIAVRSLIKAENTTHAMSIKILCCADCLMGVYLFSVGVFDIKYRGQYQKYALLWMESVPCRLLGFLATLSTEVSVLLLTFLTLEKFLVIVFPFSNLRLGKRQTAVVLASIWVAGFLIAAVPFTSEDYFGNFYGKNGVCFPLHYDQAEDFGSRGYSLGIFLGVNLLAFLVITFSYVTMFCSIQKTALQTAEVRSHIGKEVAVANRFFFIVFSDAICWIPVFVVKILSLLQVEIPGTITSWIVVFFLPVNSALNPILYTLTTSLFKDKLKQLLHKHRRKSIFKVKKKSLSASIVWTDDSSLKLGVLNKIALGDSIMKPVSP
- Experimental Details: INSL3-stimulated cAMP assay in HEK293 stably expressing rat RXFP2;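 note: cAMP measured with an HitHunter kit in 384-well plates, 11-point dose–response curves up to 1 µM antibody, four-parameter variable-slope fit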
- Test Context: INSL3 EC80-stimulated cAMP, stable expression; N = 2
Here the recorded HEK293-rat RXFP2 cAMP % Max Response is given for each entry.
Your answer should be a plain number; it is taken to be in %.

[
  {
    "Molecule": "1G1: RXFP2 monoclonal antibody from hybridoma, recombinantly expressed in a rat IgG2b backbone (antibody, V domains shown) VH: EVQLQQSGPELVKPGASVKMSCKASGYTFTDYNMHWVKQKPGQGLEWIGYINPYNDGTEYNEKFKGKATLTSDKSSSTAYMDLSSLTSEDSAVYYCARGLWFAMNYWGQGTSVTVSS VL: DIQMTQSSSSFSVSLGDRVTITCKASEDIYNRLAWYQQKPGNTPRLLISGATILETGVPSRFSGSGSGKDYTLSIISLQTEDVATYYCQQYWIIPPTFGGGTKLEIK",
    "Test Value": 87.2
  },
  {
    "Molecule": "4B8: RXFP2 monoclonal antibody from hybridoma, recombinantly expressed in a rat IgG2b backbone (antibody, V domains shown) VH: QVQLKQSGPGLVQPSQSLSITCTVSGFSLSRYGVHWVRQSPGKGLEWLGVIWSGGSTEYNAVFKSRLSISKDNSKSQVFFKMNSLQANDTAIYYCVRADGYYAMEYWGQGTSVTVSS VL: DIQMTQSPASLSVSVGETVTITCRASENIYSNLAWYQQKQGKSPQLLVYAVTNLADGVPSRFSGSGSGTQYSLKINSLQSEDFGNYYCQHFWGTPYTFGGGTKLEIK",
    "Test Value": 86.6
  },
  {
    "Molecule": "4F6: Human/rat cross-reactive RXFP2 monoclonal antibody, rat IgG2b backbone; binds the LDLa domain (antibody, V domains shown) VH: EVQLQQSGPELVKPGASVKMSCKASGYTFTNYVLHWVKQKPGQGLEWIGYINPYNDGSKYNEKFKGRATLTSDKSSSTAYMELSSLTSEDSAVYYCARGGWLLDYFDYWGQGTTLTVSS VL: DVLMTQSPLSLPVSLGEQASISCRSSQSIVHSDGDTYLEWYLQKPGQSPNLLIYKVSNRFSGVPDRFSGSGSGTDFTLKISRVEAEDLGVYYCFQGSHVPPTFGGGTKLEIK",
    "Test Value": 80.4
  }
]

Then this molecule:
Recorded result, 4G6: Human/rat cross-reactive RXFP2 monoclonal antibody, rat IgG2b backbone; binds the LDLa domain (antibody, V domains shown) VH: EVQLQQSGPELVKPGASVKLSCKASGYTFTSYVMHWVKQKPEQGLEWIGYKNPSNDGIKYNEKFKGKATLTSDKSSNIAYMELFSLTSEDSAVYYCARSDFGSVWAMDYWGQGTSVTVSS VL: SIVMTQTPKFLLVSAGDRVTITCKASQSVNDDIVWYQQKPGQSPKLLIYYASNRYTGVPDRFTGSGYGTDFTFTISTVQAGDLAVYFCQQDYSSPFTFGSGTKLEIK , HEK293-rat RXFP2 cAMP % Max Response: 82.5
